System: Amaranthus retoflexus (AMARE)
Experiment Notes: Glasshouse herbicide test, pre- and post-emergence, percentage damage
Type: in vivo
Condition Parameters: post-emergence, 1000 g/h, evaluated after 13 days, five point scale (Table B1)
Endpoint Name: percentage damage caused to the plant, AMARE, POST Application

>>> recorded_value("Cn1nnnc1NC(=O)c1ccc(C(F)(F)F)cc1S(C)(=O)=O")
"5 (5=80-100%)"
>>> recorded_value("Cc1ccc(C(F)(F)F)c(C(=O)Nc2nnnn2C)c1")
"5 (5=80-100%)"
>>> recorded_value("Cn1nnnc1NC(=O)c1cc(F)ccc1C(F)(F)F")
"5 (5=80-100%)"
>>> recorded_value("Cc1ccc([N+](=O)[O-])c(C(=O)Nc2nnnn2C)c1")
"4 (4=60-79%)"
>>> recorded_value("Cn1nnnc1NC(=O)c1cc(Cl)ccc1C(F)(F)F")
"5 (5=80-100%)"
>>> recorded_value("CCc1nc(C(C)F)ccc1C(=O)Nc1nnnn1C (centres unmarked)")
"5 (5=80-100%)"
>>> recorded_value("Cn1nnnc1NC(=O)c1cc(Br)c(Cl)cc1F")
"5 (5=80-100%)"
>>> recorded_value("CCCn1nnnc1NC(=O)c1cc(Cl)ccc1Cl")
"4 (4=60-79%)"

Q. # get_value(readout= percentage damage caused to the plant, AMARE, POST Application, system= Amaranthus retoflexus (AMARE)) for `Cn1nnnc1NC(=O)c1cc(F)c(F)cc1[N+](=O)[O-]`
A. 3 (3=40-59%)

Q. Record `Cn1nnnc1NC(=O)c1ccc(S(C)(=O)=O)c(COCC(F)(F)F)c1Cl` : what is its percentage damage caused to the plant, AMARE, POST Application with Amaranthus retoflexus (AMARE)?
A. 5 (5=80-100%)

Q. Lab note: need percentage damage caused to the plant, AMARE, POST Application with Amaranthus retoflexus (AMARE) for entry `COCCOCc1nc(C(C)(F)F)ccc1C(=O)Nc1nnnn1C` , please look it up.
A. 5 (5=80-100%)

###

Listed compounds paired with reported percentage damage caused to the plant, STEME, POST Application
Test system: Stellaria media (STEME)
Experiment Notes: Glasshouse herbicide test, pre- and post-emergence, percentage damage
Assay type: in vivo
Condition Parameters: post-emergence, 1000 g/h, evaluated after 13 days, five point scale

Sample answers from the record:
>>> recorded_value("COc1cc2cc(C(=O)Nc3nnnn3C)c(C(F)(F)F)nc2nc1C")
"5 (5=80-100%)"
>>> recorded_value("Cn1nnnc1NC(=O)c1ccccc1Cl")
"4 (4=60-79%)"
>>> recorded_value("CCCn1nnnc1NC(=O)c1cccc(Cl)c1Cl")
"1 (1=0-19%)"

Q. Entry `COc1ccc2cc(C(=O)Nc3nnn[nH]3)c(C(F)(F)F)nc2n1` has what percentage damage caused to the plant, STEME, POST Application?
A. 3 (3=40-59%)

Q. Return reported percentage damage caused to the plant, STEME, POST Application; argument: COCc1nc(C(C)F)ccc1C(=O)Nc1nnnn1C (centres unmarked)
A. 5 (5=80-100%)

Q. // query percentage damage caused to the plant, STEME, POST Application value for entry Cc1nc(C(C)F)ccc1C(=O)Nc1nnnn1C (centres unmarked)
A. 5 (5=80-100%)

Q. Would you kindly share the measured percentage damage caused to the plant, STEME, POST Application for `CS(=O)(=O)c1ccc(C(=O)Nc2nnn[nH]2)c(Cl)c1COCC(F)(F)F` ?
A. 2 (2=20-39%)

Q. I have this compound here, `Cc1nc2nc(C(F)(F)F)c(C(=O)Nc3nnnn3C)cc2cc1F` , and I need its recorded percentage damage caused to the plant, STEME, POST Application.
A. 5 (5=80-100%)

###

Test system: Alopecurus myosuroides (ALOMY)
Experiment Notes: Glasshouse herbicide test, pre- and post-emergence, percentage damage
Format: in vivo
Condition Parameters: pre-emergence, 1000 g/h, evaluated after 13 days, five point scale
Endpoint Name: percentage damage caused to the plant, ALOMY, PRE Application

Examples from the recorded data:
>>> recorded_value("Cc1ccc([N+](=O)[O-])c(C(=O)Nc2nnnn2C)c1")
"2 (2=20-39%)"
>>> recorded_value("Cn1nnnc1NC(=O)c1cc(Br)c(Cl)cc1F")
"1 (1=0-19%)"
>>> recorded_value("Cn1nnnc1NC(=O)c1cc(F)c(F)cc1[N+](=O)[O-]")
"1 (1=0-19%)"
>>> recorded_value("Cn1nnnc1NC(=O)c1cc(Cl)ccc1C(F)(F)F")
"5 (5=80-100%)"

Q. Form: Entry = `Cc1ccc(C(F)(F)F)c(C(=O)Nc2nnnn2C)c1` | System = Alopecurus myosuroides (ALOMY) | percentage damage caused to the plant, ALOMY, PRE Application = ____
A. 4 (4=60-79%)

Q. Lab note: need percentage damage caused to the plant, ALOMY, PRE Application for `Cn1nnnc1NC(=O)c1ccc(C(F)(F)F)cc1S(C)(=O)=O` on Alopecurus myosuroides (ALOMY), anyone have it?
A. 5 (5=80-100%)

Q. Item: `COCCOCc1nc(C(C)(F)F)ccc1C(=O)Nc1nnnn1C` Test system: Alopecurus myosuroides (ALOMY) Read-out: percentage damage caused to the plant, ALOMY, PRE Application Value: ?
A. 5 (5=80-100%)

Q. Alopecurus myosuroides (ALOMY) / percentage damage caused to the plant, ALOMY, PRE Application / `Cn1nnnc1NC(=O)c1cc(F)ccc1C(F)(F)F` : value?
A. 5 (5=80-100%)

Q. Find percentage damage caused to the plant, ALOMY, PRE Application (Alopecurus myosuroides (ALOMY)) for the entry CCc1nc(C(C)F)ccc1C(=O)Nc1nnnn1C (centres unmarked)
A. 3 (3=40-59%)

Q. Form: Entry = `CCCn1nnnc1NC(=O)c1cc(Cl)ccc1Cl` | System = Alopecurus myosuroides (ALOMY) | percentage damage caused to the plant, ALOMY, PRE Application = ____
A. 1 (1=0-19%)

Q. Record lookup: for Alopecurus myosuroides (ALOMY), what percentage damage caused to the plant, ALOMY, PRE Application belongs to `Cn1nnnc1NC(=O)c1ccc(S(C)(=O)=O)c(COCC(F)(F)F)c1Cl` ?
A. 5 (5=80-100%)

###

Test system: Setaria faberi (SETFA)
Experiment Notes: Glasshouse herbicide test, pre- and post-emergence, percentage damage
Format: in vivo
Condition Parameters: post-emergence, 1000 g/h, evaluated after 13 days, five point scale
Endpoint Name: percentage damage caused to the plant, SETFA, POST Application

>>> recorded_value("Cn1nnnc1NC(=O)c1cc(Cl)ccc1C(F)(F)F [Compound 1.009]")
"1 (1=0-19%)"
>>> recorded_value("Cn1nnnc1NC(=O)c1ccc(C(F)(F)F)cc1S(C)(=O)=O [Compound 1.003]")
"5 (5=80-100%)"
>>> recorded_value("Cn1nnnc1NC(=O)c1cc(F)ccc1C(F)(F)F [Compound 1.010]")
"2 (2=20-39%)"

Now consider a different molecule.
Q. Which percentage damage caused to the plant, SETFA, POST Application reading was recorded for the molecule Cn1nnnc1NC(=O)c1cc(F)c(F)cc1[N+](=O)[O-] [Compound 1.011] ?
A. 1 (1=0-19%)

###

The following compounds are listed with their measured percentage damage caused to the plant, DIGSA, PRE Application values.
Tested on: DIGSA
Experiment Notes: Glasshouse herbicide test, pre- and post-emergence, percentage damage
Type: in vivo
Condition Parameters: pre-emergence, 1000 g/h, evaluated after 13 days, five point scale

// known answers, use as guide
>>> recorded_value("COCc1nc(C(C)F)ccc1C(=O)Nc1nnnn1C (centres unmarked) [Compound 1.007]")
"3 (3=40-59%)"
>>> recorded_value("COc1ccc2cc(C(=O)Nc3nnn[nH]3)c(C(F)(F)F)nc2n1 [Compound 2.001]")
"1 (1=0-19%)"
>>> recorded_value("CCCn1nnnc1NC(=O)c1cccc(Cl)c1Cl [Compound 1.016]")
"1 (1=0-19%)"

Proceeding to the next compound to report its percentage damage caused to the plant, DIGSA, PRE Application.
Q. Tell me the measured percentage damage caused to the plant, DIGSA, PRE Application of COc1cc2cc(C(=O)Nc3nnnn3C)c(C(F)(F)F)nc2nc1C [Compound 2.003] , please.
A. 1 (1=0-19%)

###

List of percentage damage caused to the plant, SETFA, POST Application values.
Tested on: Setaria faberi (SETFA)
Experiment Notes: Glasshouse herbicide test, pre- and post-emergence, percentage damage
Assay type: in vivo
Condition Parameters: post-emergence, 1000 g/h, evaluated after 13 days, five point scale
Source text: […]

Known results for compounds:
>>> recorded_value("CCCn1nnnc1NC(=O)c1cc(Cl)ccc1Cl")
"1 (1=0-19%)"
>>> recorded_value("Cn1nnnc1NC(=O)c1cc(Br)c(Cl)cc1F")
"4 (4=60-79%)"
>>> recorded_value("COCCOCc1nc(C(C)(F)F)ccc1C(=O)Nc1nnnn1C")
"5 (5=80-100%)"
>>> recorded_value("Cn1nnnc1NC(=O)c1ccc(S(C)(=O)=O)c(COCC(F)(F)F)c1Cl")
"5 (5=80-100%)"
>>> recorded_value("Cc1ccc(C(F)(F)F)c(C(=O)Nc2nnnn2C)c1")
"1 (1=0-19%)"

Q. Record request: percentage damage caused to the plant, SETFA, POST Application value, item `Cc1ccc([N+](=O)[O-])c(C(=O)Nc2nnnn2C)c1`
A. 1 (1=0-19%)

Q. Which percentage damage caused to the plant, SETFA, POST Application is reported for this compound? CCc1nc(C(C)F)ccc1C(=O)Nc1nnnn1C (stereo not shown)
A. 2 (2=20-39%)
